Field: normalized growth. Provide a value for each of the compounds that follow.
Experiment: chemical genetic growth profiling, strain panel (AID 1159580);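 further: tested at 20 µM; growth read once vehicle control cultures reached saturation at 30 °C; 1 = growth at the plate median or of vehicle wells; lower values mean less growth of the strain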
Details: S. cerevisiae deletion strains, growth OD, locus YCR088W, strain abp1, active compounds read low
The whole screen tested about 5,500 compounds, of which about 2,000 (36%) were called active. About 18% were inconclusive and are not listed. The list shows a part of the results.
// return a plain number; no unit text

// `NC(=O)c1ccc(N)nc1` : normalized growth value = 1.01

// `CCn1cc(C(=O)O)c(=O)c2cc3c(cc21)OCO3` : normalized growth value = 0.981

// OC1CCCCC1N1CCC(c2ccccc2)CC1 (stereo unspecified) : normalized growth value = 0.983

// Nc1c(Br)cc(Br)cc1CNC1CCC(O)CC1 (stereo unspecified) : normalized growth value = 1.02

// `CCCc1cc(OC)c2c(c1)OCO2` : normalized growth value = 0.985

// NC(=O)c1cc[n+](CC2=C(C(=O)O)N3C(=O)C(NC(=O)C(c4ccccc4)S(=O)(=O)[O-])C3SC2)cc1 (stereo unspecified) : normalized growth value = 0.987

Data origin: PubChem BioAssay AID1159580
